System: P. aeruginosa PaΔ3-LAC-EcPore (efflux-deficient, hyperporinated)
Assay notes: microbe, parasite or virus in culture
Type: cell-based
Assay setup: Pseudomonas aeruginosa; PaΔ3-LAC-EcPore; at least three independent measurements; read-out: MIC
Measure name: MIC (µg/mL)
Write the value in µg/mL as a bare number.

Cc1onc(-c2ccccc2Cl)c1C(=O)N[C@@H]1C(=O)N2[C@@H]1SC(C)(C)[C@@H]2C(=O)O; 8
O=C(N[C@H](CO)[C@H](O)c1ccc([N+](=O)[O-])cc1)C(Cl)Cl; 0.125

Lookup result for CN(C)[C@@H]1C(O)=C(C(N)=O)C(=O)[C@@]2(O)C(O)=C3C(=O)c4c(O)cccc4[C@@](C)(O)[C@H]3C[C@@H]12 ; measured MIC: 0.125

Lookup result for CO[C@@H]1[C@@H](OC(N)=O)[C@@H](O)[C@H](Oc2ccc3c(O)c(NC(=O)c4ccc(O)c(CC=C(C)C)c4)c(=O)oc3c2C)OC1(C)C ; measured MIC: 4
